Counter-ions that a name gives are not always drawn.
Endpoint Label: melting point

Some entries whose results are on file:
molecule=CN(C)Cc1ccc(N/C(=C2\C(=O)Nc3cc(Cl)ccc32)c2ccc3c(c2)ncn3C)cc1 value="288 °C (dec.)"
molecule=CN(C)CC(=O)N(C)c1ccc(N/C(=C2\C(=O)Nc3ccccc32)c2cnccn2)cc1 value="198 to 199 °C"
molecule="CCNCc1ccc(N/C(=C2\\C(=O)Nc3cc(Cl)ccc32)c2ccc3c(c2)OCO3)cc1 (as salt: salt)" value="248 to 250 °C"

Data request: Consider the molecule `CN(C)Cc1ccc(N/C(=C2\C(=O)Nc3ccccc32)c2ccc3nc[nH]c3c2)cc1` and give its measured melting point.
Data returned: 273 to 277 °C (dec.)

Data request: And what about the molecule `CN(C)CC(=O)N(C)c1ccc(N/C(=C2\C(=O)Nc3cc(Cl)ccc32)c2ccc3c(c2)ncn3C)cc1` ?
Data returned: 270 °C

====

Endpoint Label: melting point (°C)

[1] CNC(=O)c1ccc2c(c1)NC(=O)/C2=C(\Nc1ccc(CN2CCN(C)CC2)cc1)c1ccc2c(c1)OCCO2
[2] CCNCc1ccc(N/C(=C2\C(=O)Nc3cc(C(=O)OC)ccc32)c2ccc3c(c2)OCCO3)cc1
Data request: Rank 1 against 2 by their melting point values and give the higher one. Returns: label corresponding to the selected item.
Data returned: 2
(2: 266 °C, 1: 172 °C)
